system: Human immunodeficiency virus 1; assay: Antiviral activity against HIV1 NL4-3 with V108I mutant in human TZM-b1 cells assessed as beta-galactosidase activity after 48 hrs by single round replication assay; assay type: functional, organism-based; conditions: Human immunodeficiency virus 1, NL4-3, TZM-b1, 48 h
property: EC50 (nM)
Please reply with the bare figure in nM and do not write the unit itself.

The examples below pair each entry with its known result.
# smiles-str, EC50 (nM)
rows = [
    ("Cc1ccnc2c1NC(=O)c1cccnc1N2C1CC1", 792),
    ("CCc1c(C)[nH]c(=O)c([N+](=O)[O-])c1O[C@@H]1C[C@H](C)C[C@H](C)C1", 2),
    ("CCc1c(C)[nH]c(=O)c(N(C)C)c1O[C@@H]1C[C@H](C)C[C@H](C)C1", 6),
    ("CCc1c(C)[nH]c(=O)c(C)c1O[C@@H]1C[C@H](C)C[C@H](C)C1", 121),
]

Problem: Please tell me: EC50 of `CCc1c(C)[nH]c(=O)c(CN=[N+]=[N-])c1O[C@@H]1C[C@H](C)C[C@H](C)C1` , system Human immunodeficiency virus 1?
Result: 11

Problem: Please tell me: EC50 of `CCOC(=O)c1c(O[C@@H]2C[C@H](C)C[C@H](C)C2)c(CC)c(C)[nH]c1=O` , system Human immunodeficiency virus 1?
Result: 5900

Problem: Please tell me: EC50 of `CCc1c(C)[nH]c(=O)c(Br)c1O[C@@H]1C[C@H](C)C[C@H](C)C1` , system Human immunodeficiency virus 1?
Result: 1

---

test: Selectivity index, ratio of CC50 for human TZM-b1 cells to EC50 for HIV1 NL4-3; type: toxicity, cell-based; conditions: read-out: Ratio CC50/EC50
property: selectivity ratio

# molecule, selectivity ratio
data = [
    ("CCOC(=O)c1c(S[C@@H]2C[C@H](C)C[C@H](C)C2)c(CC)c(C)[nH]c1=O", 862),
]

Here's the next entry for you.
Problem: Could you share which selectivity ratio value was measured for `CCc1c(C)[nH]c(=O)c([N+](=O)[O-])c1O[C@@H]1C[C@H](C)C[C@H](C)C1` ?
Result: > 37000

---

tested on: Human immunodeficiency virus 1; assay: Antiviral activity against HIV1 NL4-3 with K103N mutant in human TZM-b1 cells assessed as beta-galactosidase activity after 48 hrs by single round replication assay; type: functional, organism-based; details: Human immunodeficiency virus 1, NL4-3, TZM-b1, 48 h
property: pEC50
The scale used: pEC50 is minus the common logarithm of the concentration in molar units.

# smiles-str, result
rows = [
    ("CCc1c(C)[nH]c(=O)c(CN=[N+]=[N-])c1O[C@@H]1C[C@H](C)C[C@H](C)C1", 7.13),
    ("CCc1c(C)[nH]c(=O)c(N(C)C)c1O[C@@H]1C[C@H](C)C[C@H](C)C1", 7.85),
    ("CCc1c(C)[nH]c(=O)c(C(C)C)c1O[C@@H]1C[C@H](C)C[C@H](C)C1", 8.70),
]

Problem: Could you share which pEC50 value was measured for `CCc1c(C)[nH]c(=O)c(CC)c1O[C@@H]1C[C@H](C)C[C@H](C)C1` ?
Result: 8.30

Problem: Could you share which pEC50 value was measured for `CCc1c(C)[nH]c(=O)c([N+](=O)[O-])c1O[C@@H]1C[C@H](C)C[C@H](C)C1` ?
Result: 6.75

Problem: Could you share which pEC50 value was measured for `CCc1c(C)[nH]c(=O)c(C)c1O[C@@H]1C[C@H](C)C[C@H](C)C1` ?
Result: 6.85

Problem: Could you share which pEC50 value was measured for `CCc1c(C)[nH]c(=O)c(Br)c1O[C@@H]1C[C@H](C)C[C@H](C)C1` ?
Result: 8.05

Problem: Could you share which pEC50 value was measured for `O=C1Nc2ccc(Cl)cc2[C@@](C#CC2CC2)(C(F)(F)F)O1` ?
Result: 7.51

Problem: Could you share which pEC50 value was measured for `Cc1ccnc2c1NC(=O)c1cccnc1N2C1CC1` ?
Result: 5.48
